Record form. Attribute: IC50. Fill in for each entry.
# tgt: Human immunodeficiency virus type 1 reverse transcriptase (Human immunodeficiency virus 1, UniProt Q72547)
Numeric only. Scale: nM

Quick one: IC50 for `COc1ccc(OCCC#Cc2cn([C@H]3C=C[C@@H](CO)O3)c(=O)[nH]c2=O)c(CCNC(=S)Nc2ccc(Br)cn2)c1` ?
61

Now the molecule `COc1ccc(OCCOCC#Cc2cn([C@H]3C=C[C@@H](CO)O3)c(=O)[nH]c2=O)c(CCNC(=S)Nc2ccc(Br)cn2)c1`
575

Now the molecule `COc1ccc(OC)c(CCNC(=S)Nc2ccc(Br)cn2)c1`
38

Now the molecule `Cc1cn([C@H]2C=C[C@@H](CO)O2)c(=O)[nH]c1=O`
9600

Now the molecule COC(=O)[C@H](C)NP(=O)(OC[C@@H]1C=C[C@H](n2cc(C#CCOCCOCCOCCOCCOc3ccc(OC)cc3CCNC(=S)Nc3ccc(Br)cn3)c(=O)[nH]c2=O)O1)Oc1ccc(C)cc1 (some centres not stated)
2300

Now the molecule `COc1ccc(OCCOCCOCC#Cc2cn([C@H]3C=C[C@@H](CO)O3)c(=O)[nH]c2=O)c(CCNC(=S)Nc2ccc(Br)cn2)c1`
850

Now the molecule `COc1ccc(OCCOCCOCCOCCOCC#Cc2cn([C@H]3C=C[C@@H](CO)O3)c(=O)[nH]c2=O)c(CCNC(=S)Nc2ccc(Br)cn2)c1`
1400

* * *

# Tested on: MT2
# experiment summary: Cytotoxicity against human MT2 cells after 5 days by MTT assay
# Assay type: cell-based
# reported conditions: mt2, 120 h
observation type: CC50 (µM)
Numeric only. Scale: µM

Quick one: CC50 for `COc1ccc(OCCOCCOCC#Cc2cn([C@H]3C=C[C@@H](CO)O3)c(=O)[nH]c2=O)c(CCNC(=S)Nc2ccc(Br)cn2)c1` ?
43

Now the compound `COc1ccc(OCCOCCOCCOCCOCC#Cc2cn([C@H]3C=C[C@@H](CO)O3)c(=O)[nH]c2=O)c(CCNC(=S)Nc2ccc(Br)cn2)c1`
18

Now the compound COC(=O)[C@H](C)NP(=O)(OC[C@@H]1C=C[C@H](n2cc(C#CCOCCOCCOCCOCCOc3ccc(OC)cc3CCNC(=S)Nc3ccc(Br)cn3)c(=O)[nH]c2=O)O1)Oc1ccc(C)cc1 (some centres not stated)
11

Now the compound `COc1ccc(OCCOCC#Cc2cn([C@H]3C=C[C@@H](CO)O3)c(=O)[nH]c2=O)c(CCNC(=S)Nc2ccc(Br)cn2)c1`
38

Now the compound `COc1ccc(OCCC#Cc2cn([C@H]3C=C[C@@H](CO)O3)c(=O)[nH]c2=O)c(CCNC(=S)Nc2ccc(Br)cn2)c1`
17
